Assay: chemical genetic growth profiling, strain panel (AID 1159580);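 also: tested at 20 µM; growth read once vehicle control cultures reached saturation at 30 °C; 1 = growth at the plate median or of vehicle wells; lower values mean less growth of the strain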
Details: S. cerevisiae deletion strains, growth OD, locus YBR136W, strain MEC1, hits give low values
In all, about 5,500 compounds went through this assay and about 2,000 (36%) were called active. Another 18% or so got no clear call; they are omitted. This is one part of the list.
I'd appreciate it if you could supply normalized growth values for the items below.
Give a plain numeric answer without units written out.

Ask | Provide one value: measured normalized growth of `O=C(N/N=C\c1cc(Cl)cc(Cl)c1O)c1ccccc1Oc1ccccc1`
Reply | 0.964

Ask | Provide one value: measured normalized growth of `O=C(OCc1ccc(Oc2ccc(Cl)cc2Cl)c([N+](=O)[O-])c1)c1ccc([N+](=O)[O-])o1`
Reply | 0.961

Ask | Provide one value: measured normalized growth of O=C1OC(Nc2ccccc2SCc2ccccc2Cl)c2ccccc21 (stereo unspecified)
Reply | 0.973

Ask | Provide one value: measured normalized growth of CCC1(c2ccccc2)OC(c2cc(Cl)cc(Cl)c2O)Nc2ccccc21 (stereo unspecified)
Reply | 0.968

Ask | Provide one value: measured normalized growth of `COc1ccc(/C(C#N)=C2C=C/C(=N/O)C(Cl)=C\2)cc1`
Reply | 0.954

Ask | Provide one value: measured normalized growth of `N#C/C(=C\C=C\c1ccccc1)c1nc2ccccc2[nH]1`
Reply | 0.962

Ask | Provide one value: measured normalized growth of `Cc1nc(C(F)(F)F)ccc1C(=O)Sc1nnc(-c2ccc(C(F)(F)F)nc2C)o1`
Reply | 0.955

Ask | Provide one value: measured normalized growth of `N#Cc1c(N)sc2c1CCc1ccccc1-2`
Reply | 0.896

Ask | Provide one value: measured normalized growth of CCOC(=O)C(NC(C)=O)(Nc1ccc(F)c(Cl)c1)C(F)(F)F (stereo unspecified)
Reply | 0.997

Ask | Provide one value: measured normalized growth of `FC(F)(F)c1ccc(NC(=S)Nc2ccc(C(F)(F)F)cc2Cl)c(Cl)c1`
Reply | 0.969

Ask | Provide one value: measured normalized growth of `O=C(SCc1c(Cl)cccc1Cl)c1ccc([N+](=O)[O-])o1`
Reply | 0.969

Ask | Provide one value: measured normalized growth of `Cc1nn(Cc2cccc(C(=O)O/N=C(/N)c3ccc(Cl)cc3)c2)c(C)c1Br`
Reply | 0.977

Ask | Provide one value: measured normalized growth of `NNC(=O)COc1ccc(C2SCCS2)cc1`
Reply | 0.986

Ask | Provide one value: measured normalized growth of `Cc1c(NCN2C(=O)CCC2=O)cc2c(c1[N+](=O)[O-])C(C)(C)CC2(C)C`
Reply | 0.959

Ask | Provide one value: measured normalized growth of `Cc1ccc(C(=O)Nc2ccc3ccccc3n2)cc1`
Reply | 0.965

Ask | Provide one value: measured normalized growth of `CCCCCc1ccc(S(=O)(=O)Nc2ncc(C)cc2Br)cc1`
Reply | 0.952

Ask | Provide one value: measured normalized growth of `CN(C)c1nc(=S)ss1`
Reply | 0.883

Ask | Provide one value: measured normalized growth of `CSc1nc(Sc2n[nH]c(-c3ccccc3)n2)cc(Sc2n[nH]c(-c3ccccc3)n2)n1`
Reply | 1

Ask | Provide one value: measured normalized growth of `N#CC(C#N)=NNc1ccc(-n2ccc(C(F)(F)F)n2)cc1`
Reply | 0.905

Ask | Provide one value: measured normalized growth of `COc1ccc(-c2cc(NS(=O)(=O)c3cccc(F)c3)n(-c3ccc(Cl)c(Cl)c3)n2)cc1`
Reply | 0.965

Ask | Provide one value: measured normalized growth of FC(F)(F)c1ccc(C2Sc3ccccc3N=C3c4ccccc4CC32)cc1 (stereo unspecified)
Reply | 1

* * *

I'd appreciate it if you could supply normalized growth values for the items below.
Test: chemical genetic growth profiling, strain panel (AID 1159580);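 also: tested at 20 µM; growth read once vehicle control cultures reached saturation at 30 °C; 1 = growth at the plate median or of vehicle wells; lower values mean less growth of the strain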
Conditions: S. cerevisiae deletion strains, growth OD, locus YBR229C, strain ROT2, hits give low values
The whole screen tested about 5,500 compounds, of which about 2,000 (36%) were called active. Not shown: some 18% with an inconclusive outcome. This is one part of the list.
Give a plain numeric answer without units written out.

Ask | Provide one value: measured normalized growth of `COc1c(O)cc(O)cc1O`
Reply | 1

Ask | Provide one value: measured normalized growth of `O=c1[nH]cnc2nc[nH]c12`
Reply | 0.992

Ask | Provide one value: measured normalized growth of `CCOc1ccc(Cc2nccc3cc(OCC)c(OCC)cc23)cc1OCC`
Reply | 0.969

Ask | Provide one value: measured normalized growth of `COc1ccc2c(=O)c(CC(=O)O)coc2c1`
Reply | 1

Ask | Provide one value: measured normalized growth of COc1cc(OC)c2c(c1Cl)OC1(C2=O)C(O)=CC(=O)CC1C (configuration not stated)
Reply | 1.02

Ask | Provide one value: measured normalized growth of `COc1cc(O)c(C)c(O)c1`
Reply | 0.998

Ask | Provide one value: measured normalized growth of `Cc1ccc(C(=O)NNC(=O)c2ccncc2)c(C)c1`
Reply | 0.993

Ask | Provide one value: measured normalized growth of `O=C(O)C12CC3CC(CC(Br)(C3)C1)C2`
Reply | 0.972

Ask | Provide one value: measured normalized growth of `CCOC(=O)c1c(Nc2ccccc2)sc([N+](=O)[O-])c1N`
Reply | 1.01

Ask | Provide one value: measured normalized growth of CCCC(=O)Nc1ncnc2c1ncn2C1O[C@@H]2COP(=O)(O)O[C@H]2[C@H]1OC(=O)CCC (some centres not stated)
Reply | 1.01

Ask | Provide one value: measured normalized growth of `CC(=O)CSc1nsc(SCC(C)=O)c1C#N`
Reply | 1

Ask | Provide one value: measured normalized growth of `CCc1cccc(C)c1NC(=O)N1CCN(C(=O)OC(C)(C)C)CC1`
Reply | 0.99

* * *

Experiment: chemical genetic growth profiling, strain panel (AID 1159580);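 also: tested at 20 µM; growth read once vehicle control cultures reached saturation at 30 °C; 1 = growth at the plate median or of vehicle wells; lower values mean less growth of the strain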
Settings: S. cerevisiae deletion strains, growth OD, locus YDR052C, strain DBF4, hits give low values
About 2,000 (36%) of roughly 5,500 compounds were called active. About 18% were inconclusive and are not listed. The list shows a part of the results.
MEASURED_PARAMETER: normalized growth
Give a plain numeric answer without units written out.

Ask | Provide one value: measured normalized growth of `Cc1c(NCN2C(=O)CCC2=O)cc2c(c1[N+](=O)[O-])C(C)(C)CC2(C)C`
Reply | 0.956

Ask | Provide one value: measured normalized growth of `Cc1nn(Cc2cccc(C(=O)O/N=C(/N)c3ccc(Cl)cc3)c2)c(C)c1Br`
Reply | 0.98

Ask | Provide one value: measured normalized growth of `N#C/C(=C\C=C\c1ccccc1)c1nc2ccccc2[nH]1`
Reply | 0.966

Ask | Provide one value: measured normalized growth of CCOC(=O)C1C(c2ccc(Br)cc2)C(C(=O)OCC)C(O)(C(F)(F)F)NC1(O)C(F)(F)F (centres undefined)
Reply | 0.994

* * *

Experiment: chemical genetic growth profiling, strain panel (AID 1159580);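 also: tested at 20 µM; growth read once vehicle control cultures reached saturation at 30 °C; 1 = growth at the plate median or of vehicle wells; lower values mean less growth of the strain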
Conditions: S. cerevisiae deletion strains, growth OD, locus YER167W, strain BCK2, hits give low values
Hit rate of the full screen: of about 5,500 compounds, about 2,000 (36%) were called active. About 18% were inconclusive and are not listed. This is one part of the list.
MEASURED_PARAMETER: normalized growth
Give a plain numeric answer without units written out.

Ask | Provide one value: measured normalized growth of `NCCS`
Reply | 1.02

Ask | Provide one value: measured normalized growth of CC(C)CCCC(C)C1CCC2C3CCC4CC(=O)CCC4(C)C3CCC12C (stereo unspecified)
Reply | 1

Ask | Provide one value: measured normalized growth of `COc1cc(OC)c(-c2c(OC)cc(OC)cc2OC)c(OC)c1`
Reply | 1.01

Ask | Provide one value: measured normalized growth of CC(=O)Oc1ccc2c(c1)CCC1C2CC[C@@]2(C)C1CC[C@@H]2OC(C)=O (stereo partly specified)
Reply | 0.971

Ask | Provide one value: measured normalized growth of COc1cc(OC)c2c(c1Cl)OC1(C2=O)C(O)=CC(=O)CC1C (stereo unspecified)
Reply | 1.02

Ask | Provide one value: measured normalized growth of `O=c1cc(-c2ccc(O)cc2)oc2cc(O[C@@H]3O[C@H](CO)[C@@H](O)[C@H](O)[C@H]3O[C@@H]3OC[C@](O)(CO)[C@H]3O)cc(O)c12`
Reply | 1.01

Ask | Provide one value: measured normalized growth of C[C@]12CCC3c4ccc(O)cc4CCC3C1CC[C@@H]2OC(=O)CCC1CCCC1 (stereo partly specified)
Reply | 1.01

Ask | Provide one value: measured normalized growth of O=C1OC(=O)C2C3CCC(O3)C12 (stereo unspecified)
Reply | 1

Ask | Provide one value: measured normalized growth of CCOC(=O)C1=C(C)NC(C)=C(C(=O)OC)C1c1cccc([N+](=O)[O-])c1 (stereo unspecified)
Reply | 1

Ask | Provide one value: measured normalized growth of C[N+]1(C)C2CC[C@H]1CC(OC(=O)C(O)c1ccccc1)C2 (stereo partly specified)
Reply | 0.977

Ask | Provide one value: measured normalized growth of `COc1cc(OC)cc(OC)c1`
Reply | 1.01

Cited source for all entries: PubChem BioAssay AID1159580
